The following compounds are listed with their measured LD50 values.
# experimental.details: Toxicity was measured as LD50,po
# Type: organism-based
# conditions: mouse, in vivo
All answers are understood in mg/kg, so give the number only.

Would you please look over these solved cases?
smiles.repr	LD50 / mg/kg
CNCCCCOc1ccccc1Cc1ccccc1O.Cl	750
CNCCCCOc1ccccc1Sc1ccccc1.Cl	980
CNCCCCOc1ccccc1Cc1ccccc1.Cl	1000
CNCCCCOc1ccccc1Oc1ccccc1.Cl	600

Reported LD50 ( CN(C)CCC=C1c2ccccc2CCc2ccccc21 ) = 300
